run-description: qHTS assay for identifying genotoxic compounds that show differential cytotoxicity against isogenic chicken DT40 cell lines with known DNA damage response pathways - Rad54/Ku70 mutant cell line (AID 743015); also: nearly all actives have a fitted effect of over 60% in size
experimental-context: DT40 Rad54/Ku70 mutant viability, CellTiter-Glo, 40 h; series mostly up to 66.8 µM
Results filed as inconclusive are left out. Active and inactive are the calls of the source. Calls follow the shape of the dose curve; as a rule, active = well fitted cell-killing curve with a large enough effect in the repeat runs; inconclusive = weak or mixed curves; inactive = no such curve, though single readings can be large or run the other way.
Reply using exactly one outcome from 1 (active), -1 (inactive)

Use these answered entries as a reference point.
>>> assigned_label("Clc1ccc([C@@H]2C[C@H]3CC[C@@H]2N3)cn1")
-1
>>> assigned_label("CNC(C)[C@@H]1CC[C@@H](N)[C@@H](O[C@H]2[C@H](O)[C@@H](O[C@H]3OC[C@](C)(O)[C@H](NC)[C@H]3O)[C@H](N)C[C@@H]2N)O1 (some centres undefined)")
-1
>>> assigned_label("C[C@]12CC[C@H]3[C@@H](CCC4=CC(=O)CC[C@@]43C)[C@@H]1CC[C@@H]2OC(=O)CCc1ccccc1")
1

Next item in the queue.
Prompt line: Recorded test outcome, item `CCC(=O)O[C@H]1[C@@H](N2CCCCC2)C[C@H]2[C@@H]3CC[C@H]4C[C@H](OC(C)=O)[C@@H](N5CCCCC5)C[C@]4(C)[C@H]3CC[C@@]21C`
Response line: 1

----------
tested-target: Acetylcholinesterase (Homo sapiens) (UniProt P22303)
Sequence (P22303 whole entry, looked up): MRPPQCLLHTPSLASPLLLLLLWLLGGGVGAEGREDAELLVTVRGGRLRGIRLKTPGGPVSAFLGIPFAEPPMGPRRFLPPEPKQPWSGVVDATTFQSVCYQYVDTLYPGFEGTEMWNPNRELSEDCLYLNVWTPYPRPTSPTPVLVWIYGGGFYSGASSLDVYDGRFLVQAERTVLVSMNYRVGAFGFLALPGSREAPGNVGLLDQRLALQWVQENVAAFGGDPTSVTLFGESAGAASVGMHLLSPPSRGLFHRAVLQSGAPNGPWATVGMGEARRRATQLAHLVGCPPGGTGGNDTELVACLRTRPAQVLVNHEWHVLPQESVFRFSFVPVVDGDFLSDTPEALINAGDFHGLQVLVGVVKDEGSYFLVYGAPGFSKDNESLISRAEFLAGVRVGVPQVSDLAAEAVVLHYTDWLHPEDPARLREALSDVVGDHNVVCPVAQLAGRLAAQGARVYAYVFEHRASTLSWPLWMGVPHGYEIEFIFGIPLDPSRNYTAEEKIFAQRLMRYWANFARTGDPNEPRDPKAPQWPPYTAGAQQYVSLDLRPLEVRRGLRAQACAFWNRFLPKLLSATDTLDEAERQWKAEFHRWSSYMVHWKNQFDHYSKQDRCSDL
run-description: Acetylcholinesterase (AChE) small molecule antagonists: colormetric cell-based qHTS assay (AID 1347395); also: nearly all actives have a fitted effect of over 30% in size
experimental-context: SH-SY5Y cells AChE activity, colorimetric (Ellman); series mostly up to 115 µM
Excerpt: National Center for Advancing Translational Sciences [NCATS] Division of Preclinical Innovation [DPI] U.S. Environmental Protection Agency [EPA] National Institutes of Environmental Health Sciences [NIEHS] National Toxicology Program [NTP] U.S. Food and Drug Administration [FDA] Acetylcholinesterase (AChE) is the primary cholinesterase in the body that hydrolyzes a key neurotransmitter, acetylcholine. Inhibition of AChE activity can lead to neurotoxicity. […]
Records with an inconclusive call do not appear. Calls of active or inactive are those of the source. Calls come from the whole dose curve.
Hi! Could you answer with just one of these? active, inactive

>>> assigned_label("C=CCCC(=O)O")
"inactive"
>>> assigned_label("CC(=O)S[C@@H]1CC2=CC(=O)CC[C@]2(C)[C@H]2CC[C@@]3(C)[C@@H](CC[C@@]34CCC(=O)O4)[C@H]12")
"inactive"
>>> assigned_label("O=C(O)c1cc(N=Nc2ccc([N+](=O)[O-])cc2)ccc1O")
"inactive"
>>> assigned_label("Nc1ncnc2c1ncn2Cc1c(F)cccc1Cl")
"inactive"
>>> assigned_label("CCCC(=O)OC(=O)CCC")
"inactive"
>>> assigned_label("O=[N+]([O-])c1ccc(Nc2ccc(Nc3ccccc3)c(S(=O)(=O)O)c2)c([N+](=O)[O-])c1")
"inactive"
>>> assigned_label("O=C(/C=C/c1ccc(O)c(O)c1)O[C@@H]1C[C@@](OC(=O)/C=C/c2ccc(O)c(O)c2)(C(=O)O)C[C@@H](O)[C@@H]1O")
"inactive"
>>> assigned_label("CC(CC(=O)Cl)CC(C)(C)C (configuration not stated)")
"inactive"

Prompt line: How was CC(=O)C1CCCCC1=O (configuration not stated) classified in this test?
Response line: inactive

Prompt line: Please share the test call associated with `C[C@@H](O)[C@H]1C(=O)N2C(C(=O)O)=C([C@H]3CCCO3)S[C@H]12` .
Response line: inactive

Prompt line: Per the records of this test, what outcome belongs to `CCOC(OCC)C(=O)c1ccccc1` ?
Response line: inactive

Prompt line: Could you check what this test reported for CCC(C)SSC(C)CC (configuration not stated) ?
Response line: inactive

Prompt line: Recorded call for `COC(=O)/C=C(/C)N` ?
Response line: inactive

Prompt line: Dear all, I need the recorded test outcome for CC(=O)OC1C2(C)CCC(C2)C1(C)C (configuration not stated) , thank you.
Response line: inactive

Prompt line: I would be grateful if you could indicate the recorded call for `CC(C)(C)c1ccc(C=O)cc1` .
Response line: inactive

Prompt line: Lab log entry: C[N+]1(C)CCCC(OC(=O)C(O)(c2ccccc2)c2ccccc2)C1 (configuration not stated) — outcome as called in the assay?
Response line: inactive

Prompt line: # outcome recorded in this test, key = `CCOc1ccc2[nH]cc(C(=O)NCc3ccccc3)c(=O)c2n1`
Response line: inactive

Prompt line: Could you check what this test reported for `O=C(O)/C=C/c1ccc(O)c(O)c1` ?
Response line: inactive

Prompt line: What call does the record list for CCCC(CC)CCCCCCCN (configuration not stated) ?
Response line: inactive

Prompt line: Hi, sorry to bother you, what did the test record for CC(C)(C)C(=O)OCOC(=O)C1N2C(=O)CC2S(=O)(=O)C1(C)C (configuration not stated) ?
Response line: inactive

This collection of values is drawn from PubChem BioAssay (Tox21).
